Recorded values, source the CATMoS acute toxicity set (Mansouri et al. 2021).

assay: GHS categories as the set defines them, by LD50: 1 up to 5, 2 up to 50, 3 up to 300, 4 up to 2000, 5 above 2000 mg/kg; settings: rat; in vivo; po
Endpoint Name: GHS category
Note: the reply should be a number with no unit written.

Recorded results for 5 compounds are shown here.
[[record]]
compound = "CN1CC(c2ccn(-c3ccccc3)n2)CC2c3cccc4[nH]cc(c34)CC21 (stereo unspecified)"
endpoint_name = "GHS category"
endpoint_result = 4

[[record]]
compound = "CC(=O)OCC1=C(C(=O)O)N2C(=O)C(NC(=O)Cc3cccs3)C2SC1 (stereo unspecified)"
endpoint_name = "GHS category"
endpoint_result = 5

[[record]]
compound = "CC(C)(O)CCC(C)(C)O"
endpoint_name = "GHS category"
endpoint_result = 5

[[record]]
compound = "Nc1ccc(C2(c3ccc(N)c(Cl)c3)c3ccccc3-c3ccccc32)cc1Cl"
endpoint_name = "GHS category"
endpoint_result = 5

[[record]]
compound = "C=CCNC(=O)Oc1cccc2c1OC(C)(C)O2"
endpoint_name = "GHS category"
endpoint_result = 4


Proceeding to the next compound to report its GHS category.
Field GHS category (entry Cc1ccc(C(C)C)c(OC(=O)c2ccccc2Nc2cccc(C)c2C)c1 ) reads 5

----------
Let's look at some compounds and their measured GHS category.
Assay: GHS categories as the set defines them, by LD50: 1 up to 5, 2 up to 50, 3 up to 300, 4 up to 2000, 5 above 2000 mg/kg
Conditions: rat; in vivo; po
Excerpt: […]The data set underlying the modeling effort for this project was initially compiled by NICEATM and U.S. EPA’s CCTE. Briefly, LD50 data were collected from rat acute oral systemic toxicity tests, including limit tests, ranges/confidence intervals, and discrete LD50 values. The full data set included 21,200 LD50 entries for 15,688 substances. […]
Respond using a number only.

Worked cases, GHS category given:
[[record]]
compound = "CCCCC(CC)COC(=O)CC(CC(=O)OCC(CC)CCCC)(OC(C)=O)C(=O)OCC(CC)CCCC (stereo not given)"
endpoint_result = 5

[[record]]
compound = "CCN(CC)c1ccc(N)cc1"
endpoint_result = 3

[[record]]
compound = "O=C(O)COc1ccc(Cl)cc1CO"
endpoint_result = 5


GET /value?item= COC(Cn1cncn1)(OC)c1cc2ccccc2o1 &field=GHS category returns 4

The compound listed as C=CCCCCCCCCOC(C)=O shows GHS category equal to 5

Per the records, this compound ( NC(CSCC(=O)O)C(=O)O (stereo not given) ) has GHS category equal to 5

Lab book: GHS category of O=c1cc[nH]c(=O)[nH]1 noted as 5

Consider NC[C@H]1O[C@H](O[C@H]2[C@H](O)[C@@H](O[C@H]3O[C@H](CO)[C@@H](O)[C@H](N)[C@H]3O)[C@H](N)C[C@@H]2N)[C@H](N)[C@@H](O)[C@@H]1O . Its measured GHS category is 5

According to the records, this compound O=C(Nc1ccc(Cl)cc1)NS(=O)(=O)c1ccc2c(c1)CCC2 displays GHS category of 4

compound CCOC(=O)Cn1c(=O)sc2cccc(Cl)c21 , GHS category observed: 5

Sample COc1ccc(Cl)cc1NC(=O)CC(C)=O ; GHS category observed: 5

----------
Known GHS category of a selection of compounds
test: GHS categories as the set defines them, by LD50: 1 up to 5, 2 up to 50, 3 up to 300, 4 up to 2000, 5 above 2000 mg/kg; details: rat; in vivo; po
Reply: number alone, nothing else.

[[record]]
compound = "CCCCl"
endpoint_name = "GHS category"
endpoint_result = 5

[[record]]
compound = "CCCCC1(CC)COC(Cn2cncn2)(c2cc3ccccc3o2)OC1 (stereo unspecified)"
endpoint_name = "GHS category"
endpoint_result = 4

[[record]]
compound = "CCCCCCCCCCCCCCCC(=O)Nc1cc(Cl)c(CC)c(Cl)c1O"
endpoint_name = "GHS category"
endpoint_result = 5

[[record]]
compound = "Nc1ccc(S(=O)(=O)O)cc1N"
endpoint_name = "GHS category"
endpoint_result = 5

[[record]]
compound = "NC(=O)CCNCCO"
endpoint_name = "GHS category"
endpoint_result = 5

[[record]]
compound = "O=C(O)CCCCCNc1nc(NCCCCCC(=O)O)nc(NCCCCCC(=O)O)n1"
endpoint_name = "GHS category"
endpoint_result = 5

[[record]]
compound = "N#CCN(CC#N)CCN(CC#N)CC#N"
endpoint_name = "GHS category"
endpoint_result = 5

[[record]]
compound = "O=S(=O)(O)c1ccc(Cl)cc1"
endpoint_name = "GHS category"
endpoint_result = 4

[[record]]
compound = "CCOCc1nc(=O)c2nccnc2[nH]1"
endpoint_name = "GHS category"
endpoint_result = 5

[[record]]
compound = "O=C1CCCCCN1C(=O)c1cccc(C(=O)N2CCCCCC2=O)c1"
endpoint_name = "GHS category"
endpoint_result = 5


Consider CCCCOC(=O)C(=O)[C@H]1[C@H](C)C[C@H]2[C@@H]3C[C@H](F)C4=CC(=O)C=C[C@]4(C)[C@H]3[C@@H](O)C[C@@]21C . Its measured GHS category is 5

// sample CCC(=O)NP(=O)(OC)SC (stereo unspecified) , its GHS category was 4

Note to self: GHS category recorded for CC(C)OC[C@H]1CO[C@@](Cn2cncn2)(c2cc3cc(Cl)cc(Cl)c3o2)O1 was 4

The measured GHS category associated with O=C(O)c1ccc(NC(=O)[C@H](Cc2ccc(O)cc2)NC(=O)c2ccccc2)cc1 reads 5

Per the record, FC(F)CNCc1ccc(Cl)nc1 has GHS category of 5

The measured GHS category associated with CC1(C(=O)O)CCCCC1 reads 4

In plain terms, CC(CO)C1CCCCCCCCCCC1 (stereo unspecified) has a documented GHS category of 5

// CCCCCCCCCCCCCCOc1ccc(C(=O)O)o1 : GHS category value = 5

Entry COc1ccc(Cl)cc1N/C(=N/C1CCCCC1)c1cccc(C)c1 , GHS category reported as 4
